target_of_assay: YAP-TEAD interaction (human YAP2-His6 (50-114) / human TEAD1-GST (209-426)) (Homo sapiens)
Construct: GST-TEAD1 (209-426) produced in E. coli
Sequence (P28347 209-426): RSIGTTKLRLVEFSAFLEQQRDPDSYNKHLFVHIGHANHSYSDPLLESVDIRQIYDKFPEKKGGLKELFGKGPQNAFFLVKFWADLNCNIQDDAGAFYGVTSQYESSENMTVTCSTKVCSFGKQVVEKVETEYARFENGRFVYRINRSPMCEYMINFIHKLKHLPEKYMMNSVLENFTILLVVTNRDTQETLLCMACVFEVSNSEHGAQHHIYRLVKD
test_protocol: YAP-TEAD AlphaLISA assay
recorded_conditions: YAP-TEAD AlphaLISA, 2 h equilibration at room temperature
Excerpt: YAP-TEAD AlphaLISA Assay for IC50 Value Determination. […] Results were expressed as % inhibition=100×((HighControl−Cpd)/(HighControl−LowControl)), were High control is the maximum response obtained with all components and Low control is the basal response obtained with all components without GST-Tead1. […]
pIC50: −log10 of the molar value. Counter-ions that a name gives are not always drawn.
Use 6 as the dividing line for pIC50, with the line itself on the YES side and lower values as NO.

## Task Textbook exercise: given the entry COCCN(/N=C/c1ccc(O)c(OC)c1)C1=NS(=O)(=O)c2ccccc21 , state whether its pIC50 is greater than or equal to 6.
## Result NO

## Task Textbook exercise: given the entry COc1cc(/C=N/N(CCN2CCOCC2)C2=NS(=O)(=O)c3c(OC)cc(C)cc32)ccc1O [Example 32, hydrochloride] , state whether its pIC50 is greater than or equal to 6.
## Result YES

## Task Textbook exercise: given the entry COc1cc(/C=N/N(CC(F)(F)F)C2=NS(=O)(=O)c3ccccc32)ccc1O , state whether its pIC50 is greater than or equal to 6.
## Result NO

## Task Textbook exercise: given the entry COc1cc(/C=N/N(CCN2CCOCC2)C2=NS(=O)(=O)c3ccccc32)ccc1O [Example 4, hydrochloride] , state whether its pIC50 is greater than or equal to 6.
## Result YES

## Task Textbook exercise: given the entry COc1cc(/C=N/N(C)C2=NS(=O)(=O)c3cc(-c4ccccc4)ccc32)ccc1O , state whether its pIC50 is greater than or equal to 6.
## Result NO

## Task Textbook exercise: given the entry COc1ccc2c(c1)C(N(CCN1CCOCC1)/N=C/c1ccc(O)c(OC)c1)=NS2(=O)=O , state whether its pIC50 is greater than or equal to 6.
## Result YES

## Task Textbook exercise: given the entry COc1ccc2c(c1)C(N(C)/N=C/c1ccc(O)c(OC)c1)=NS2(=O)=O , state whether its pIC50 is greater than or equal to 6.
## Result YES
